Listing: pKi of selected molecules
Subject of test: CDK2/Cyclin E1 full length (Homo sapiens (Human), UniProt P24941)
Protocol details: CDK2/Cyclin E1 full length mobility shift assay
pKi: −log10 of the molar value.
Outcome measure: pKi

{"Molecule": "O=C(Cc1cc(F)cc(F)c1)Nc1cc([C@H]2CC[C@@H](OC(=O)NCC(F)F)C2)[nH]n1", "Quantitative result": 8.90}
{"Molecule": "O=C(Cc1nccs1)Nc1cc([C@H]2CC[C@@H](OC(=O)NCCC(F)(F)F)C2)[nH]n1", "Quantitative result": 8.42}
{"Molecule": "CC1(NC(=O)O[C@@H]2CC[C@H](c3cc(NC(=O)Cc4cscn4)n[nH]3)C2)CC1", "Quantitative result": 9.22}
{"Molecule": "CC(CO)CNC(=O)O[C@@H]1CC[C@H](c2cc(NC(=O)Cc3cc(F)cc(F)c3)n[nH]2)C1 (single isomer, unassigned) [Example 539]", "Quantitative result": 8.63}

====

Parameter pKi: see the listing below.
Subject of test: CDK2/Cyclin E1 full length (Homo sapiens (Human), UniProt P24941)
Protocol details: CDK2/Cyclin E1 full length mobility shift assay
pKi: −log10 of the molar value.

{"Compound": "CCCNC(=O)O[C@H]1CC[C@@H](c2cc(NC(=O)Cc3cc(C)no3)n[nH]2)C1", "pKi": 9.37}
{"Compound": "CC[C@H](C)NC(=O)O[C@@H]1CC[C@H](c2cc(NC(=O)Cc3cc(C)no3)n[nH]2)C1", "pKi": 9.44}
{"Compound": "O=C(Cc1ccc(C(F)(F)F)nc1)Nc1cc([C@@H]2CC[C@H](OC(=O)NC[C@H]3C[C@H](O)C3)C2)[nH]n1", "pKi": 8.47}
{"Compound": "CCC1CCN1C(=O)O[C@@H]1CC[C@H](c2cc(NC(=O)Cc3cc(C)no3)n[nH]2)C1 (single isomer, unassigned) [Example 598]", "pKi": 9.11}
{"Compound": "CCCNC(=O)O[C@@H]1CC[C@H](c2cc(NC(=O)Cc3ccc(OC)cc3S(C)(=O)=O)n[nH]2)C1", "pKi": 9.17}
{"Compound": "Cc1ncc(CC(=O)Nc2cc([C@H]3CC[C@@H](OC(=O)NC(C)C)C3)[nH]n2)s1", "pKi": 9.51}
{"Compound": "COc1ccc(CC(=O)Nc2cc([C@H]3CC[C@@H](OC(=O)NC4(C)CCOC4)C3)[nH]n2)cc1 (single isomer, unassigned) [Example 484]", "pKi": 9.49}

====

Subject of test: GSK3β (H350L) (Homo sapiens (Human), UniProt P49841)
Sequence (P49841 whole entry, stated change not applied): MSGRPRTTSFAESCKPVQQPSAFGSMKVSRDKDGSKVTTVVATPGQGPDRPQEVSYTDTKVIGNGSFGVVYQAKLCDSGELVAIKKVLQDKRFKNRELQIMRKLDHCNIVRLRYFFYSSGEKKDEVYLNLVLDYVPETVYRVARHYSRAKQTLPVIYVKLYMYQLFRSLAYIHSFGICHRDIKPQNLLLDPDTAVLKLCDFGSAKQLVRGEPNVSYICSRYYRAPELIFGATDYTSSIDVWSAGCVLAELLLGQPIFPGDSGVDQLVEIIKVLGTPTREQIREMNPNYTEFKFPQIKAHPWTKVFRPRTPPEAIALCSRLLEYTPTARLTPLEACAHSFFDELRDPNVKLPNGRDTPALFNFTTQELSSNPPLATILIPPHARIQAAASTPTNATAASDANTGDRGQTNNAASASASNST
Experimental parameters: read-out: GSK3β Ki
Criterion: Ki strictly under 20 nM. Met: met. Not met: not met.

{"Smi": "COc1ccc(CC(=O)Nc2cc([C@@H]3CC[C@H](OC(=O)N4CCC4(C)C)C3)[nH]n2)cn1", "Discrete label": "met"}
{"Smi": "CC[C@H](C)NC(=O)O[C@@H]1CC[C@H](c2cc(NC(=O)Cc3cn4ccsc4n3)n[nH]2)C1", "Discrete label": "met"}
{"Smi": "Cc1ncc(CC(=O)Nc2cc([C@@H]3CC[C@H](OC(=O)N[C@H]4CC[C@@H](O)CC4)C3)[nH]n2)s1", "Discrete label": "met"}
{"Smi": "COCc1cc(C(=O)Nc2cc([C@H]3CC[C@@H](OC(=O)N[C@H](C)C4CC4)C3)[nH]n2)n(C)n1", "Discrete label": "not met"}
{"Smi": "CC(C)NC(=O)O[C@H]1CC[C@@H](c2cc(NC(=O)c3cnnn3C)n[nH]2)C1", "Discrete label": "not met"}
{"Smi": "COc1cc(CC(=O)Nc2cc([C@@H]3CC[C@H](OC(=O)N[C@H]4CC[C@@](C)(O)CC4)C3)[nH]n2)ccn1", "Discrete label": "met"}
{"Smi": "CCNC(=O)O[C@@H]1CC[C@H](c2cc(NC(=O)Cc3cc(F)cc(F)c3)n[nH]2)C1", "Discrete label": "not met"}

====

Subject of test: CDK2/Cyclin E1 full length (Homo sapiens (Human))
Protocol details: CDK2/Cyclin E1 full length mobility shift assay
pKi: −log10 of the molar value.
Entries and their pKi
Outcome measure: pKi

{"Molecule": "Cc1coc(CC(=O)Nc2cc([C@H]3CC[C@@H](OC(=O)N4CCC[C@@H]4C)C3)[nH]n2)n1 [Example 636]", "Quantitative result": 9.08}
{"Molecule": "Cc1cnc(CC(=O)Nc2cc([C@H]3CC[C@@H](OC(=O)NC4(CC(F)(F)F)CC4)C3)[nH]n2)o1 [Example 454]", "Quantitative result": 9.32}
{"Molecule": "CC[C@H](C)NC(=O)O[C@@H]1CC[C@H](c2cc(NC(=O)c3ccnn3CCN(C)C)[nH]n2)C1 [Example 356]", "Quantitative result": 9.17}
{"Molecule": "O=C(Cc1ccc(C(F)(F)F)nc1)Nc1cc([C@@H]2CC[C@H](OC(=O)NC[C@H]3C[C@@H]3CO)C2)[nH]n1 [Example 580]", "Quantitative result": 8.47}

====

Subject of test: GSK3β (H350L) (Homo sapiens (Human), UniProt P49841)
Experimental parameters: read-out: GSK3β Ki
// boundary case: Ki equal to 10 nM maps to NO; strictly smaller maps to YES

{"Smi": "COc1ccc(CC(=O)Nc2cc([C@@H]3CC[C@H](OC(=O)N[C@H]4CC[C@](C)(O)CC4)C3)[nH]n2)cc1", "Discrete label": "YES"}
{"Smi": "CC[C@H](C)NC(=O)O[C@@H]1CC[C@H](c2cc(NC(=O)Cc3cncc(OC)n3)n[nH]2)C1", "Discrete label": "NO"}
{"Smi": "CCCNC(=O)O[C@H]1CC[C@@H](c2cc(NC(=O)Cc3ccc(OC)nc3)n[nH]2)C1", "Discrete label": "YES"}
{"Smi": "CCCNC(=O)O[C@H]1CC[C@@H](c2cc(Nc3ccc4c(n3)CC[C@@H]4N(C)C)n[nH]2)C1", "Discrete label": "NO"}
{"Smi": "COc1ncc(CC(=O)Nc2cc([C@H]3CC[C@@H](OC(=O)NC4(C)CCOCC4)C3)[nH]n2)s1", "Discrete label": "NO"}
{"Smi": "Cc1ccc(CC(=O)Nc2cc([C@H]3CC[C@@H](OC(=O)NCC(F)F)C3)[nH]n2)cn1", "Discrete label": "NO"}
{"Smi": "Cc1cnc(CC(=O)Nc2cc([C@H]3CC[C@@H](OC(=O)N4CCC4(C)C)C3)[nH]n2)o1", "Discrete label": "YES"}

====

Subject of test: CDK2/Cyclin E1 full length (Homo sapiens (Human))
Protocol details: CDK2/Cyclin E1 full length mobility shift assay
# note: boundary value 1 nM maps to Not met; Ki below it maps to Met

{"Molecule": "CCCNC(=O)O[C@H]1CC[C@@H](c2cc(NC(=O)C3COc4ccccc43)n[nH]2)C1 (single isomer, unassigned) [Example 24]", "Discrete label": "Met"}
{"Molecule": "C[C@H](F)[C@H](C)NC(=O)O[C@@H]1CC[C@H](c2cc(NC(=O)Cc3cnn(C)c3)n[nH]2)C1 (single isomer, unassigned) [Example 381]", "Discrete label": "Not met"}
{"Molecule": "CC[C@H](C)NC(=O)O[C@@H]1CC[C@H](c2cc(NC(=O)Cc3ccc(C(=O)N(C)C)cc3)n[nH]2)C1", "Discrete label": "Met"}
{"Molecule": "CCC1CCN1C(=O)O[C@@H]1CC[C@H](c2cc(NC(=O)Cc3ncc(C)o3)n[nH]2)C1 (single isomer, unassigned) [Example 599]", "Discrete label": "Not met"}
{"Molecule": "Cc1cc(CC(=O)Nc2cc([C@@H]3CC[C@H](OC(=O)N[C@H]4CC[C@H](O)CC4)C3)[nH]n2)ccn1", "Discrete label": "Met"}
{"Molecule": "COc1cnc(CC(=O)Nc2cc([C@H]3CC[C@@H](OC(=O)N4CCC4(C)C)C3)[nH]n2)cn1", "Discrete label": "Met"}
{"Molecule": "C[C@]1(O)CC[C@H](NC(=O)O[C@@H]2CC[C@H](c3cc(NC(=O)Cc4cc(F)cc(F)c4)n[nH]3)C2)CC1", "Discrete label": "Met"}
{"Molecule": "Cc1cnc(CC(=O)Nc2cc([C@H]3CC[C@@H](OC(=O)N4CC[C@@H]4C)C3)[nH]n2)cn1", "Discrete label": "Not met"}
{"Molecule": "Cc1ncc(CC(=O)Nc2cc([C@H]3CC[C@@H](OC(=O)N[C@@H]4CCC[C@@H]4C)C3)[nH]n2)s1", "Discrete label": "Met"}
{"Molecule": "O=C(Cc1cc(F)cc(F)c1)Nc1cc([C@@H]2CC[C@H](OC(=O)NCC3CCCOC3)C2)[nH]n1 (single isomer, unassigned) [Example 516]", "Discrete label": "Not met"}
{"Molecule": "Cc1nc(CC(=O)Nc2cc([C@H]3CC[C@@H](OC(=O)NC4(C)CC4)C3)[nH]n2)cs1", "Discrete label": "Not met"}
